# MEASUREMENT_DESCRIPTION: Antiproliferative activity against rat MRMT-1 cells assessed as reduction in cell viability after 48 hr by CCK-8 assay
# Type: functional, cell-based
# EXPERIMENTAL_PARAMETERS: MRMT-1, 48 h
pIC50: −log10 of the molar value. Where a SMILES comes first, the peptide text is derived from it. [ ]: non-standard residue; d: D form. ξ: configuration not given here. ξLac(3-iPr) = CC(C)CC(O)C(=O)O
Reported pIC50 values are given for each entry in this list.
ENDPOINT_LABEL: pIC50

* CC[C@H](C)[C@H]1OC(=O)[C@H](C(C)C)N(C)C(=O)[C@@H](C(C)C)OC(=O)[C@H](C(C)C)N(C)C(=O)[C@@H]([C@@H](C)CC)OC(=O)[C@H](C(C)C)N(C)C1=O | 5.57
* CC(C)CC1OC(=O)[C@H](Cc2ccccc2)NC(=O)[C@H](Cc2ccccc2)NC(=O)[C@H](Cc2ccccc2)NC(=O)[C@H](Cc2ccc(O)cc2)NC1=O (stereo partly drawn) (cyclo(FFF[ξLac(3-iPr)]Y)) | < 4.30
* CCCCCCCC(=O)O[C@@H]1[C@](N)(C(=O)O)CC[C@]1(O)c1ccccc1 | < 4.30

----------
# Test system: HepG2
# MEASUREMENT_DESCRIPTION: Antiproliferative activity against human HepG2 cells assessed as reduction in cell viability after 48 hr by CCK-8 assay
# Format: functional, cell-based
# EXPERIMENTAL_PARAMETERS: HepG2, 48 h
pIC50: −log10 of the molar value. Where a SMILES comes first, the peptide text is derived from it. [ ]: non-standard residue; d: D form. ξ: configuration not given here. NMeF = CN[C@@H](Cc1ccccc1)C(=O)O; Hica(2S) = CC(C)C[C@H](O)C(=O)O; ξLac(3-iPr) = CC(C)CC(O)C(=O)O
ENDPOINT_LABEL: pIC50

- CC(C)[C@H]1OC(=O)[C@H](Cc2ccccc2)N(C)C(=O)[C@@H](C(C)C)OC(=O)[C@H](Cc2ccccc2)N(C)C(=O)[C@@H](C(C)C)OC(=O)[C@H](Cc2ccccc2)N(C)C1=O: 6.00
- CC(C)C[C@@H]1OC(=O)[C@H](Cc2ccccc2)N(C)C(=O)[C@@H]2CCCN2C(=O)[C@H](C(C)C)NC(=O)[C@H](Cc2ccccc2)NC(=O)[C@@H]2CCCN2C(=O)[C@@H]2CCCN2C1=O (cyclo(FVP[NMeF][Hica(2S)]PP)): 4.70
- CC[C@H](C)[C@H]1OC(=O)[C@H](C(C)C)N(C)C(=O)[C@@H](C(C)C)OC(=O)[C@H](C(C)C)N(C)C(=O)[C@@H]([C@@H](C)CC)OC(=O)[C@H](C(C)C)N(C)C1=O: 5.55
- CC(C)CC1OC(=O)[C@H](Cc2ccccc2)NC(=O)[C@H](Cc2ccccc2)NC(=O)[C@H](Cc2ccccc2)NC(=O)[C@H](Cc2ccccc2)NC(=O)[C@H](Cc2c[nH]c3ccccc23)NC1=O (some centres not stated) (cyclo(FFFF[ξLac(3-iPr)]W)): 4.81
- CC(C)CC1OC(=O)[C@H](Cc2ccccc2)NC(=O)[C@H](Cc2ccccc2)NC(=O)[C@H](Cc2ccccc2)NC(=O)[C@H](Cc2ccc(O)cc2)NC1=O (some centres not stated) (cyclo(FFF[ξLac(3-iPr)]Y)): 4.97
- CCC(C)[C@H]1OC(=O)[C@H](C(C)C)N(C)C(=O)[C@@H](C(C)CC)OC(=O)[C@H](CC(C)C)N(C)C(=O)[C@@H](C(C)CC)OC(=O)[C@H](C(C)C)N(C)C1=O (some centres not stated): 5.85
- O=c1[nH]cc(F)c(=O)[nH]1: 4.44
- CCC(C)C1NC(=O)C(CC(C)C)NC(=O)C(C(C)CC)NC(=O)C(CC(C)C)NC(=O)C(CC(C)C)NC1=O (configuration not stated) (cyclo(ILILL); configuration not given here): 4.85
- CCC(C)[C@H]1OC(=O)[C@H](C(C)C)N(C)C(=O)[C@@H](C(C)CC)OC(=O)[C@H](C(C)C)N(C)C(=O)[C@@H](C(C)CC)OC(=O)[C@H](C(C)C)N(C)C1=O (some centres not stated): 5.48
